Please provide measured viability, T/C for the entries that follow.
System: 556581-035-R-J1-PDC spheroids with HUVEC/MSC, viability
testDetails: Anticancer human tumor 556581-035-R-J1-PDC patient-derived ovarian carcinoma cell line growth inhibition [IpAb]
testSettings: second compound 0.0316 µM; first compound 3.16 µM; stronger effect = lower value
Answers are plain numbers, in %.

The examples below pair each entry with its known result.
| compound | targetUnderTest | viability, T/C / % |
| --- | --- | --- |
| C=CC(=O)N1CCN(c2nc(=O)n(-c3c(C)ccnc3C(C)C)c3nc(-c4c(O)cccc4F)c(F)cc23)C(C)C1 (configuration not stated) + CCN1CCN(Cc2ccc(Nc3ncc(F)c(-c4cc(F)c5nc(C)n(C(C)C)c5c4)n3)nc2)CC1 | 556581-035-R-J1-PDC spheroids with HUVEC/MSC, viability | 108 |
| C=CCn1c(=O)c2cnc(Nc3ccc(N4CCN(C)CC4)cc3)nc2n1-c1cccc(C(C)(C)O)n1 + CCN1CCN(Cc2ccc(Nc3ncc(F)c(-c4cc(F)c5nc(C)n(C(C)C)c5c4)n3)nc2)CC1 | 556581-035-R-J1-PDC spheroids with HUVEC/MSC, viability | 51.3 |
| Cc1nc(NC(=O)N2CCCC2C(N)=O)sc1-c1ccnc(C(C)(C)C(F)(F)F)c1 (configuration not stated) + CCN1CCN(Cc2ccc(Nc3ncc(F)c(-c4cc(F)c5nc(C)n(C(C)C)c5c4)n3)nc2)CC1 | 556581-035-R-J1-PDC spheroids with HUVEC/MSC, viability | 27.5 |
| CC1(C)CCC(CN2CCN(c3ccc(C(=O)NS(=O)(=O)c4ccc(NCC5CCOCC5)c([N+](=O)[O-])c4)c(Oc4cnc5[nH]ccc5c4)c3)CC2)=C(c2ccc(Cl)cc2)C1 + CCN1CCN(Cc2ccc(Nc3ncc(F)c(-c4cc(F)c5nc(C)n(C(C)C)c5c4)n3)nc2)CC1 | 556581-035-R-J1-PDC spheroids with HUVEC/MSC, viability | 95.5 |
| CCCS(=O)(=O)Nc1ccc(F)c(C(=O)c2c[nH]c3ncc(-c4ccc(Cl)cc4)cc23)c1F + CCN1CCN(Cc2ccc(Nc3ncc(F)c(-c4cc(F)c5nc(C)n(C(C)C)c5c4)n3)nc2)CC1 | 556581-035-R-J1-PDC spheroids with HUVEC/MSC, viability | 110 |

For every item below, please supply its viability, T/C.
1. Cn1ncc(Cl)c1-c1cc(C(=O)NC(CN)Cc2cccc(F)c2)sc1Cl (configuration not stated) + CCN1CCN(Cc2ccc(Nc3ncc(F)c(-c4cc(F)c5nc(C)n(C(C)C)c5c4)n3)nc2)CC1
2. Cn1nccc1Nc1nccc(-c2ccn(C(CO)c3ccc(Cl)c(F)c3)c(=O)c2)n1 (configuration not stated) + CCN1CCN(Cc2ccc(Nc3ncc(F)c(-c4cc(F)c5nc(C)n(C(C)C)c5c4)n3)nc2)CC1

[41.1, 72]

====

Please provide measured viability, T/C for the entries that follow.
System: 556581-035-R-J1-PDC spheroids with HUVEC/MSC, viability
testDetails: Anticancer human tumor 556581-035-R-J1-PDC cell line growth inhibition [IpAb];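 note: spheroids exposed to compounds for 7 days before readout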
testSettings: second compound 10 µM; first compound 0.316 µM; stronger effect = lower value

The examples below pair each entry with its known result.
| molecule | viability, T/C |
| --- | --- |
| COc1c(OCCCN2CCOCC2)ccc2c3n(c(=NC(=O)c4cnc(N)nc4)nc12)CCN3 + CC(C)NCC(C(=O)N1CCN(c2ncnc3c2C(C)CC3O)CC1)c1ccc(Cl)cc1 | 14.7% |
| Cn1nccc1Nc1nccc(-c2ccn(C(CO)c3ccc(Cl)c(F)c3)c(=O)c2)n1 (stereo not given) + CC(C)NCC(C(=O)N1CCN(c2ncnc3c2C(C)CC3O)CC1)c1ccc(Cl)cc1 | 27.8% |
| CC1(C)CCC(CN2CCN(c3ccc(C(=O)NS(=O)(=O)c4ccc(NCC5CCOCC5)c([N+](=O)[O-])c4)c(Oc4cnc5[nH]ccc5c4)c3)CC2)=C(c2ccc(Cl)cc2)C1 + CC(C)NCC(C(=O)N1CCN(c2ncnc3c2C(C)CC3O)CC1)c1ccc(Cl)cc1 | 44.5% |
| Cc1nc(NC(=O)N2CCCC2C(N)=O)sc1-c1ccnc(C(C)(C)C(F)(F)F)c1 (stereo not given) + CC(C)NCC(C(=O)N1CCN(c2ncnc3c2C(C)CC3O)CC1)c1ccc(Cl)cc1 | 35.7% |

Now consider the entry below.
Form entry - test system: 556581-035-R-J1-PDC spheroids with HUVEC/MSC, viability; read-out: viability, T/C; molecule: C=CCn1c(=O)c2cnc(Nc3ccc(N4CCN(C)CC4)cc3)nc2n1-c1cccc(C(C)(C)O)n1 + CC(C)NCC(C(=O)N1CCN(c2ncnc3c2C(C)CC3O)CC1)c1ccc(Cl)cc1 14.8%

====

Please provide measured pIC50 for the entries that follow.
System: 556581-035-R-J1-PDC spheroids with HUVEC/MSC, viability
testDetails: Anticancer human tumor 556581-035-R-J1-PDC cell line growth inhibition [IpAb];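 note: spheroids exposed to compounds for 7 days before readout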
testSettings: curve of first compound; second compound 1 µM
Numbers only, as −log10 of the molar value.

The examples below pair each entry with its known result.
| compound | measureName | dataValue |
| --- | --- | --- |
| Cc1nc(NC(=O)N2CCCC2C(N)=O)sc1-c1ccnc(C(C)(C)C(F)(F)F)c1 (stereo not given) + CC(C)NCC(C(=O)N1CCN(c2ncnc3c2C(C)CC3O)CC1)c1ccc(Cl)cc1 | pIC50 | 7.32 |
| Cn1nccc1Nc1nccc(-c2ccn(C(CO)c3ccc(Cl)c(F)c3)c(=O)c2)n1 (stereo not given) + CCN1CCN(Cc2ccc(Nc3ncc(F)c(-c4cc(F)c5nc(C)n(C(C)C)c5c4)n3)nc2)CC1 | pIC50 | 5.27 |
| C=CC(=O)N1CCN(c2nc(=O)n(-c3c(C)ccnc3C(C)C)c3nc(-c4c(O)cccc4F)c(F)cc23)C(C)C1 (stereo not given) + CCN1CCN(Cc2ccc(Nc3ncc(F)c(-c4cc(F)c5nc(C)n(C(C)C)c5c4)n3)nc2)CC1 | pIC50 | 6.84 |
| Cn1nccc1Nc1nccc(-c2ccn(C(CO)c3ccc(Cl)c(F)c3)c(=O)c2)n1 (stereo not given) + CC(C)NCC(C(=O)N1CCN(c2ncnc3c2C(C)CC3O)CC1)c1ccc(Cl)cc1 | pIC50 | 6.78 |

Please give the measured pIC50 for this compound: C=CC(=O)N1CCN(c2nc(=O)n(-c3c(C)ccnc3C(C)C)c3nc(-c4c(O)cccc4F)c(F)cc23)C(C)C1 (stereo not given) + CC(C)NCC(C(=O)N1CCN(c2ncnc3c2C(C)CC3O)CC1)c1ccc(Cl)cc1 5.40

====

Please provide measured viability, T/C for the entries that follow.
System: 556581-035-R-J1-PDC spheroids with HUVEC/MSC, viability
testDetails: Anticancer human tumor 556581-035-R-J1-PDC cell line growth inhibition [IpAb];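 note: spheroids exposed to compounds for 7 days before readout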
testSettings: second compound 3.16 µM; first compound 0.316 µM; stronger effect = lower value
Numbers only, in %.

For every item below, please supply its viability, T/C.
1. CC1(C)CCC(CN2CCN(c3ccc(C(=O)NS(=O)(=O)c4ccc(NCC5CCOCC5)c([N+](=O)[O-])c4)c(Oc4cnc5[nH]ccc5c4)c3)CC2)=C(c2ccc(Cl)cc2)C1 + CC(C)NCC(C(=O)N1CCN(c2ncnc3c2C(C)CC3O)CC1)c1ccc(Cl)cc1
2. Cn1nccc1Nc1nccc(-c2ccn(C(CO)c3ccc(Cl)c(F)c3)c(=O)c2)n1 (stereo not given) + CC(C)NCC(C(=O)N1CCN(c2ncnc3c2C(C)CC3O)CC1)c1ccc(Cl)cc1

1. 58.4
2. 38.1

For every item below, please supply its viability, T/C.
1. COc1c(OCCCN2CCOCC2)ccc2c3n(c(=NC(=O)c4cnc(N)nc4)nc12)CCN3 + CC(C)NCC(C(=O)N1CCN(c2ncnc3c2C(C)CC3O)CC1)c1ccc(Cl)cc1
2. C=CCn1c(=O)c2cnc(Nc3ccc(N4CCN(C)CC4)cc3)nc2n1-c1cccc(C(C)(C)O)n1 + CC(C)NCC(C(=O)N1CCN(c2ncnc3c2C(C)CC3O)CC1)c1ccc(Cl)cc1
3. CCCS(=O)(=O)Nc1ccc(F)c(C(=O)c2c[nH]c3ncc(-c4ccc(Cl)cc4)cc23)c1F + CC(C)NCC(C(=O)N1CCN(c2ncnc3c2C(C)CC3O)CC1)c1ccc(Cl)cc1

11.8
17.2
55.5

====

Please provide measured viability, T/C for the entries that follow.
Tested on: 556581-035-R-J1-PDC spheroids with HUVEC/MSC, viability
testDetails: Anticancer human tumor 556581-035-R-J1-PDC cell line growth inhibition [IpAb];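 note: spheroids exposed to compounds for 7 days before readout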
testSettings: second compound 0.1 µM; first compound 0.001 µM; stronger effect = lower value

For every item below, please supply its viability, T/C.
1. CC(C)n1nc(-c2ccc3oc(N)nc3c2)c2c(N)ncnc21 + CCN1CCN(Cc2ccc(Nc3ncc(F)c(-c4cc(F)c5nc(C)n(C(C)C)c5c4)n3)nc2)CC1
2. Cn1ncnc1[C@H]1c2n[nH]c(=O)c3cc(F)cc(c23)N[C@@H]1c1ccc(F)cc1 + CCN1CCN(Cc2ccc(Nc3ncc(F)c(-c4cc(F)c5nc(C)n(C(C)C)c5c4)n3)nc2)CC1
3. Cn1ncnc1[C@H]1c2n[nH]c(=O)c3cc(F)cc(c23)N[C@@H]1c1ccc(F)cc1 + CC(C)NCC(C(=O)N1CCN(c2ncnc3c2C(C)CC3O)CC1)c1ccc(Cl)cc1
4. CC(C)n1nc(-c2ccc3oc(N)nc3c2)c2c(N)ncnc21 + CC(C)NCC(C(=O)N1CCN(c2ncnc3c2C(C)CC3O)CC1)c1ccc(Cl)cc1

1: 76.1%; 2: 81.3%; 3: 93%; 4: 68.8%
